Biological target: MAP2K7 (human)
Assay: KINOMEscan competition binding
Settings: compound 10.0 µM
parameter measured: kinase still bound, per cent of control (%)

INSERT INTO results (structure_smiles, parameter_measured, value_observed) VALUES
  ('Nc1ccc(-c2ccc3ncc4ccc(=O)n(-c5cccc(C(F)(F)F)c5)c4c3c2)cn1', 'kinase still bound, per cent of control', 100),
  ('Cc1cc([C@@H](C)Nc2ccccc2C(=O)O)c2nc(N3CCOCC3)cc(=O)n2c1', 'kinase still bound, per cent of control', 90),
  ('N#Cc1c(NC(=O)c2cccc3ccccc23)sc2c1CCCC2', 'kinase still bound, per cent of control', 100);

###

Target: EPHB3 (human) (UniProt P54753)
Sequence (P54753 whole entry, looked up): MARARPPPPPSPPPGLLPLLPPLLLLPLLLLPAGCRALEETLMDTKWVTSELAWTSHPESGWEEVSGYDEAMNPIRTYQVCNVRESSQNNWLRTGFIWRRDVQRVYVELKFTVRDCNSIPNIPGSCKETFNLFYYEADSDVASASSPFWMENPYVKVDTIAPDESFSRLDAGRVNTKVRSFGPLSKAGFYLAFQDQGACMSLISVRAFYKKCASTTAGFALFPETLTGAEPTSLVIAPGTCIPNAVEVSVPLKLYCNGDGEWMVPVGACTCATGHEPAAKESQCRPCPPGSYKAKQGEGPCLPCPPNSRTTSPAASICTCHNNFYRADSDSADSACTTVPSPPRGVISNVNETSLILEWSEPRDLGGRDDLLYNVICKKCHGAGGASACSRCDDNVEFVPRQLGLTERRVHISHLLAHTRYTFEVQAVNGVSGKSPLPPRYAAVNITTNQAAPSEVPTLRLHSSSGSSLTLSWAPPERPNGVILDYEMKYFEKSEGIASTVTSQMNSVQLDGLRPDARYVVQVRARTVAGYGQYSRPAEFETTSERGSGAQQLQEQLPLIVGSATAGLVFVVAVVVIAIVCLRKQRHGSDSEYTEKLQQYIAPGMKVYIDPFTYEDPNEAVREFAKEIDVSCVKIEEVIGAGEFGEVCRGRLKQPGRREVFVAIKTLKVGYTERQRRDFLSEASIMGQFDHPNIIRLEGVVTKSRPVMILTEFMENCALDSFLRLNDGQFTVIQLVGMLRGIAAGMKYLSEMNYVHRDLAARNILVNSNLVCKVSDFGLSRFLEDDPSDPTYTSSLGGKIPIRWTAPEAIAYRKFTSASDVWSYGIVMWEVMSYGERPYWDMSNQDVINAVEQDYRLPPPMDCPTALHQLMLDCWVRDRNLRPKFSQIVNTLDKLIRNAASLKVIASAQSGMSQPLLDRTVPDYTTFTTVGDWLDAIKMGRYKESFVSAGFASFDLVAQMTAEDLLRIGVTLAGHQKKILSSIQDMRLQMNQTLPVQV
Assay: KINOMEscan competition binding
Conditions: compound 10.0 µM
parameter measured: kinase still bound, per cent of control (%)

INSERT INTO assay_data (molecule, value_observed) VALUES
  ('O=C1Nc2ccc(I)cc2/C1=C/c1cc(Br)c(O)c(Br)c1', 100),
  ('N#Cc1c(NC(=O)c2cccc3ccccc23)sc2c1CCCC2', 98),
  ('CN(C)C/C=C/C(=O)Nc1cccc(Nc2ncc3c(n2)N(C)c2ccccc2C(=O)N3C)c1', 88),
  ('CCC(=O)N1CCN(c2ccc(-n3c(=O)ccc4cnc5ccc(-c6cnc7ccccc7c6)cc5c43)cc2C(F)(F)F)CC1', 85),
  ('CCOc1cc2ncc(C#N)c(Nc3ccc(OCc4ccccn4)c(Cl)c3)c2cc1NC(=O)/C=C/CN(C)C', 100),
  ('Cc1ccc2nc(NCCN)c3ncc(C)n3c2c1', 100),
  ('COc1cc(C(=O)NC2CCN(C)CC2)ccc1Nc1ncc2c(n1)N(C1CCCC1)CCC(=O)N2C(C)C', 100),
  ('O=C(NOC[C@H](O)CO)c1ccc(F)c(F)c1Nc1ccc(I)cc1F', 89),
  ('COc1cc(C(=O)NC2CCN(C)CC2)ccc1Nc1ncc2c(n1)N(C1CCCC1)C(C)CC(=O)N2C (configuration not stated)', 100),
  ('Cn1c(=O)n(-c2ccc(C(C)(C)C#N)cc2)c2c3cc(-c4cnc5ccccc5c4)ccc3ncc21', 100),
  ('Cc1cc([C@@H](C)Nc2ccccc2C(=O)O)c2nc(N3CCOCC3)cc(=O)n2c1', 100),
  ('CC[C@@H]1C(=O)N(C)c2cnc(Nc3ccc(C(=O)NC4CCN(C)CC4)cc3OC)nc2N1C1CCCC1', 100);

###

Biological target: CLK2 (human) (UniProt P49760)
Sequence (P49760 whole entry, looked up): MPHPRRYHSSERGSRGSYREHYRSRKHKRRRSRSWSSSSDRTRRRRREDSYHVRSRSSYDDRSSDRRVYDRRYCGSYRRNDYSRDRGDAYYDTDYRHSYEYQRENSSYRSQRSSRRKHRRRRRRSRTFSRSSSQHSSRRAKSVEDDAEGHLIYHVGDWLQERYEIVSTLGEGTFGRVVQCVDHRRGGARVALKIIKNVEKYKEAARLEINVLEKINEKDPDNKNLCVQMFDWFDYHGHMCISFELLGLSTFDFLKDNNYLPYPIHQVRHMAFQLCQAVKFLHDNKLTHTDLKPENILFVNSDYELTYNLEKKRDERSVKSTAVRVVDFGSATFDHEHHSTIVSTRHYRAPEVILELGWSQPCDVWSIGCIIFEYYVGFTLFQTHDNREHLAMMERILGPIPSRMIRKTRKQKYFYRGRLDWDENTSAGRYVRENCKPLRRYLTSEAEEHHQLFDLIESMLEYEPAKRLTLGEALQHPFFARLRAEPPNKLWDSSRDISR
Test: KINOMEscan competition binding
Conditions: compound 10.0 µM
parameter measured: kinase still bound, per cent of control (%)

INSERT INTO results (structure_smiles, parameter_measured, measurement_unit, value_observed) VALUES
  ('N#Cc1c(NC(=O)c2cccc3ccccc23)sc2c1CCCC2', 'kinase still bound, per cent of control', '%', 87),
  ('CC[C@@H]1C(=O)N(C)c2cnc(Nc3ccc(C(=O)NC4CCN(C)CC4)cc3OC)nc2N1C1CCCC1', 'kinase still bound, per cent of control', '%', 5.4),
  ('C=CC(=O)Nc1cccc(Nc2nc(N[C@H]3CC[C@H](N(C)C)CC3)nc3c2ncn3C(C)C)c1', 'kinase still bound, per cent of control', '%', 0.5),
  ('Nc1ccc(-c2ccc3ncc4ccc(=O)n(-c5cccc(C(F)(F)F)c5)c4c3c2)cn1', 'kinase still bound, per cent of control', '%', 15),
  ('Cc1ccc(C(=O)Nc2cccc(C(F)(F)F)c2)cc1Nc1cncc(C(N)=O)c1', 'kinase still bound, per cent of control', '%', 100),
  ('CCC(=O)N1CCN(c2ccc(-n3c(=O)ccc4cnc5ccc(-c6cnc7ccccc7c6)cc5c43)cc2C(F)(F)F)CC1', 'kinase still bound, per cent of control', '%', 65),
  ('C=CC(=O)Nc1cc(NC(=O)c2ccc(C)c(NC(=O)c3ccno3)c2)cc(C(F)(F)F)c1', 'kinase still bound, per cent of control', '%', 80);

Origin of values: the kinase profiling compilation of Christmann-Franck et al. (2016)
